# TEST DESCRIPTION: Bocillin-FL fluorescence polarization competition binding assay, A. baumannii PBP3
# DETAILS: fluorescence polarization competition binding assay using Bocillin-FL; column 3; read-out: 4. baumannii PBP1a Potency
# Source text: Example I: Experimental Method for Penicillin-Binding Protein Binding Assays with Bocillin-FL Via Fluorescence Polarization […]
pEC50: −log10 of the molar value.
RECORDED METRIC: pEC50

// worked examples, pEC50 included
COMPOUND: CCN1CCN(C(=O)NC(C(=O)N[C@H]2Cc3ccc(F)c(C(=O)O)c3OB2O)c2ccc(C(=O)O)cc2)C(=O)C1=O (stereo partly shown) [Example 15]
pEC50: < 4.00
//
COMPOUND: NCCN1CCN(C(=O)N[C@@H](C(=O)N[C@H]2Cc3cccc(C(=O)O)c3OB2O)c2ccc(C(=O)O)cc2)C(=O)C1=O (single isomer, unassigned) [Example 84]
pEC50: 4.00 to 4.52
//
COMPOUND: O=C(NCCCN1CCN(C(=O)NC(C(=O)N[C@H]2Cc3ccc(F)c(C(=O)O)c3OB2O)c2ncc(O)cc2F)C(=O)C1=O)c1ccc(O)c(O)c1Cl (stereo partly shown) [Example 3]
pEC50: > 5.00

Shifting focus to the compound that follows.
# input Query (compound): NCCN1CCN(C(=O)N[C@H](C(=O)N[C@H]2Cc3cccc(C(=O)O)c3OB2O)c2ccc(O)cc2Cl)C(=O)C1=O (single isomer, unassigned) [Example 85] ; field requested: pEC50
# output < 4.00

---

Form field: MIC (one value per entry).
# System: N. gonorrhoeae WHO Z
# TEST DESCRIPTION: Liquid broth MIC in Fastidious broth
# Type: cell-based
# DETAILS: Neisseria gonorrhoeae, read-out: Minimum Inhibitory Concentration, N. gonorrhoeae WHO Z

// worked examples, MIC included
MOLECULE: NCCN1CCN(C(=O)NC(C(=O)N[C@H]2Cc3cccc(C(=O)O)c3OB2O)c2ccc(C(=O)O)c(Cl)c2)C(=O)C1=O (some centres unmarked)
RECORDED METRIC: MIC
RESULT: 16 to 32 µg/mL
//
MOLECULE: NCCN1CCN(C(=O)N[C@H](C(=O)N[C@H]2Cc3cccc(C(=O)O)c3OB2O)c2ccc(O)c(F)c2F)C(=O)C1=O (single isomer, unassigned)
RECORDED METRIC: MIC
RESULT: > 64 µg/mL
//
MOLECULE: NCCN1CCN(C(=O)N[C@@H](C(=O)N[C@H]2Cc3cccc(C(=O)O)c3OB2O)c2ccc(O)c(F)c2F)C(=O)C1=O (single isomer, unassigned)
RECORDED METRIC: MIC
RESULT: > 64 µg/mL
//
MOLECULE: CCN1CCN(C(=O)N[C@@H](C(=O)N[C@H]2Cc3cccc(C(=O)O)c3OB2O)c2cc(O)cc(O)c2)C(=O)C1=O (single isomer, unassigned)
RECORDED METRIC: MIC
RESULT: 4 to 8 µg/mL
//
MOLECULE: CCN1CCN(C(=O)N[C@@H](C(=O)N[C@H]2Cc3cccc(C(=O)O)c3OB2O)c2ccc(C(=O)O)c(Cl)c2)C(=O)C1=O (single isomer, unassigned)
RECORDED METRIC: MIC
RESULT: 0.25 to 0.5 µg/mL

# input # value lookup — system N. gonorrhoeae WHO Z, readout MIC, item CCN1CCN(C(=O)NC(C(=O)N[C@H]2Cc3cccc(C(=O)O)c3OB2O)c2ccc(C(=O)O)cc2F)C(=O)C1=O (some centres unmarked)
# output 4 to 8 µg/mL

# input # value lookup — system N. gonorrhoeae WHO Z, readout MIC, item CCN1CCN(C(=O)NC(C(=O)N[C@H]2Cc3cccc(C(=O)O)c3OB2O)c2cccc(S(N)(=O)=O)c2)C(=O)C1=O (some centres unmarked)
# output 16 to 32 µg/mL

# input # value lookup — system N. gonorrhoeae WHO Z, readout MIC, item CCN1CCN(C(=O)NC(C(=O)N[C@H]2Cc3cccc(C(=O)O)c3OB2O)c2cc(F)c(C(=O)O)cc2F)C(=O)C1=O (some centres unmarked)
# output 4 to 8 µg/mL

---

Form field: MIC (one value per entry).
# System: A. baumannii ATCC 17978
# TEST DESCRIPTION: Broth microdilution MIC in iron-depleted CAMHB (IDM)
# Assay type: cell-based
# DETAILS: Acinetobacter baumannii, ATCC17978, read-out: Minimum Inhibitory Concentration, ATCC 17978

// worked examples, MIC included
MOLECULE: Nc1nc(/C(=N/OC[C@H](NC(=O)c2ccc(O)c(O)c2Cl)C(=O)O)C(=O)N[C@H]2Cc3cccc(C(=O)O)c3OB2O)cs1 [Example 6]
ASSAY TARGET: A. baumannii ATCC 17978
MIC: 8 to 16 µg/mL
--
MOLECULE: O=C(NCCCN1CCN(C(=O)NC(C(=O)N[C@H]2Cc3ccc(F)c(C(=O)O)c3OB2O)c2ncc(O)cc2F)C(=O)C1=O)c1ccc(O)c(O)c1Cl (stereo partly shown) [Example 3]
ASSAY TARGET: A. baumannii ATCC 17978
MIC: 8 to 16 µg/mL
--
MOLECULE: O=C(Nc1ccc(O)c(O)c1Cl)NC(C(=O)N[C@H]1Cc2ccc(F)c(C(=O)O)c2OB1O)c1ncc(O)cc1F (stereo partly shown) [Example 9]
ASSAY TARGET: A. baumannii ATCC 17978
MIC: 32 to 64 µg/mL
--
MOLECULE: CS(=O)(=O)N1CCN(C(=O)NC(C(=O)N[C@H]2Cc3ccc(F)c(C(=O)O)c3OB2O)c2c(Cl)cc(O)c(O)c2F)C1=O (stereo partly shown) [Example 208]
ASSAY TARGET: A. baumannii ATCC 17978
MIC: 0.5 to 1 µg/mL

# input Query (molecule): O=C(NC(C(=O)N[C@H]1Cc2ccc(F)c(C(=O)O)c2OB1O)c1ncc(O)cc1F)c1c(F)cc(O)c(O)c1Cl (stereo partly shown) [Example 10] ; field requested: MIC
# output 32 to 64 µg/mL

# input Query (molecule): CCN1CCN(C(=O)N[C@@H](C(=O)N[C@H]2Cc3ccc(F)c(C(=O)O)c3OB2O)c2c(F)c(F)c(O)c(O)c2Cl)C(=O)C1=O [Example 228] ; field requested: MIC
# output 0.5 to 1 µg/mL

# input Query (molecule): CCN1CCN(C(=O)NC(C(=O)N[C@H]2Cc3cccc(C(=O)O)c3OB2O)c2ccc(O)c(NC(=O)c3ccc(O)c(O)c3Cl)c2)C(=O)C1=O (stereo partly shown) [Example 74] ; field requested: MIC
# output 32 to 64 µg/mL

---

Form field: MIC (one value per entry).
# System: E. coli 901C
# TEST DESCRIPTION: Broth microdilution MIC in CAMHB
# Format: cell-based
# DETAILS: Escherichia coli; E. coli 901C (hyper-permeable); MHB; read-out: Minimum Inhibitory Concentration, E. coli 901C

// worked examples, MIC included
COMPOUND: CCN1CCN(C(=O)NC(C(=O)N[C@H]2Cc3cccc(C(=O)O)c3OB2O)c2cc([N+](=O)[O-])c(O)cc2F)C(=O)C1=O (stereo partly shown)
RESULT: < 0.25 µg/mL

COMPOUND: NC1(CN2CCN(C(=O)N[C@H](C(=O)N[C@H]3Cc4cccc(C(=O)O)c4OB3O)c3c(F)cc(O)cc3F)C(=O)C2=O)CC1 (single isomer, unassigned)
RESULT: 2 to 4 µg/mL

COMPOUND: NCCN1CCN(C(=O)N[C@@H](C(=O)N[C@H]2Cc3cccc(C(=O)O)c3OB2O)c2ccc(O)c(Cl)c2F)C(=O)C1=O (single isomer, unassigned)
RESULT: 0.5 to 1 µg/mL

Shifting focus to the compound that follows.
# input Query (compound): N=C(N)NCCN1CCN(C(=O)NC(C(=O)N[C@H]2Cc3ccc(F)c(C(=O)O)c3OB2O)c2ncc(O)cc2F)C(=O)C1=O (stereo partly shown) ; field requested: MIC
# output 2 to 4 µg/mL

---

# Test system: P. aeruginosa CDC-0054 producing VIM-4, OXA-50, and PAO
# TEST DESCRIPTION: Broth microdilution MIC in iron-depleted CAMHB (IDM)
# Assay type: cell-based
# DETAILS: Pseudomonas aeruginosa, read-out: Minimum Inhibitory Concentration, P. aeruginosa CDC-0054
Form field: MIC (one value per entry).

// worked examples, MIC included
MOLECULE: O=C(NC(C(=O)N[C@H]1Cc2ccc(F)c(C(=O)O)c2OB1O)c1ncc(O)cc1F)c1c(F)cc(O)c(O)c1Cl (stereo partly drawn) [Example 10]
RESULT: 2 to 4 µg/mL
//
MOLECULE: CCN1CCN(C(=O)N[C@H](C(=O)N[C@H]2Cc3ccc(F)c(C(=O)O)c3OB2O)c2c(F)cc(O)c(O)c2Cl)C(=O)C1=O (single isomer, unassigned) [Example 125]
RESULT: > 128 µg/mL

# input Query (molecule): C[C@@H](O)[C@@H](NC(=O)N1CCN(CCNC(=O)c2c(F)cc(O)c(O)c2Cl)C(=O)C1=O)C(=O)N[C@H]1Cc2ccc(F)c(C(=O)O)c2OB1O [Example 102] ; field requested: MIC
# output 32 to 64 µg/mL
